molecular target: Human-A2B (HEK-A2B) (Homo sapiens, UniProt P29275); construct: expressed in transfected cells; host or cells: HEK-293 cells, stably transfected (HEK-A2B); test: Radioligand binding, human A2B AdoR, HEK-A2B membranes; conditions: 3H-CGS21680 radioligand (footnote c); HEK-A2B membranes; read-out: Ki (low) Human-A2B HEK-A2B
Sequence (P29275 whole entry): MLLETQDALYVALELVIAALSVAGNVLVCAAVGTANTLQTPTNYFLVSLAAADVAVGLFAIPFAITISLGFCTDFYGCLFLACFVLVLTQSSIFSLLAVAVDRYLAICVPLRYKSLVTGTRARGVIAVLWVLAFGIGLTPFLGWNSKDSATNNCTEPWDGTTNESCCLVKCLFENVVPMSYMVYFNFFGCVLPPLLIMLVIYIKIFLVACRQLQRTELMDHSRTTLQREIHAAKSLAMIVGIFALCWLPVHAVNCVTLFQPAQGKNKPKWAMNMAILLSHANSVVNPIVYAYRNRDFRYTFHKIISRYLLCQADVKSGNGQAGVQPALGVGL

{"ITEM_SMILES": "Cc1cccc(-c2nc3c(NC4CCCC4)ncnc3n2C)c1", "STUDY_SYSTEM": "Human-A2B (HEK-A2B) (Homo sapiens, UniProt P29275)", "Ki": "> 6.67 µM"}
{"ITEM_SMILES": "CCn1c(-c2ccccc2)nc2c(NC3CCCCC3)ncnc21", "STUDY_SYSTEM": "Human-A2B (HEK-A2B) (Homo sapiens, UniProt P29275)", "Ki": "> 6.67 µM"}
{"ITEM_SMILES": "COc1ccc(-c2nc3c(NC4CCCC4)ncnc3n2C)cc1", "STUDY_SYSTEM": "Human-A2B (HEK-A2B) (Homo sapiens, UniProt P29275)", "Ki": "> 6.67 µM"}
{"ITEM_SMILES": "Cn1c(-c2cccnc2)nc2c(NC3CCCC3)ncnc21", "STUDY_SYSTEM": "Human-A2B (HEK-A2B) (Homo sapiens, UniProt P29275)", "Ki": "> 6.67 µM"}
{"ITEM_SMILES": "Cc1ccccc1-c1nc2c(NC3CCCC3)ncnc2n1C", "STUDY_SYSTEM": "Human-A2B (HEK-A2B) (Homo sapiens, UniProt P29275)", "Ki": "> 6.67 µM"}
{"ITEM_SMILES": "Cn1c(-c2ccc(F)cc2)nc2c(NC3CCCC3)ncnc21", "STUDY_SYSTEM": "Human-A2B (HEK-A2B) (Homo sapiens, UniProt P29275)", "Ki": "> 6.67 µM"}

----------
molecular target: Human-A2B (HEK-A2B) (Homo sapiens); construct: expressed in transfected cells; host or cells: HEK-293 cells, stably transfected (HEK-A2B); assay: Radioligand binding, human A2B AdoR, HEK-A2B membranes; conditions: 3H-CGS21680 radioligand (footnote c); HEK-A2B membranes; read-out: Ki (low) Human-A2B HEK-A2B
# Ki listing for each entry below

{"ITEM_SMILES": "Cn1c(-c2ccccc2)nc2c(NC3CCCCC3)ncnc21", "STUDY_SYSTEM": "Human-A2B (HEK-A2B) (Homo sapiens)", "Ki": "> 6.67 µM"}
{"ITEM_SMILES": "CCCn1c(-c2ccccc2)nc2c(NC3CCCCC3)ncnc21", "STUDY_SYSTEM": "Human-A2B (HEK-A2B) (Homo sapiens)", "Ki": "> 6.67 µM"}
{"ITEM_SMILES": "Cc1ccc(-c2nc3c(NC4CCCC4)ncnc3n2C)cc1", "STUDY_SYSTEM": "Human-A2B (HEK-A2B) (Homo sapiens)", "Ki": "> 6.67 µM"}
{"ITEM_SMILES": "Cn1c(-c2cccc(Cl)c2)nc2c(NC3CCCC3)ncnc21", "STUDY_SYSTEM": "Human-A2B (HEK-A2B) (Homo sapiens)", "Ki": "> 6.67 µM"}
{"ITEM_SMILES": "Cn1c(-c2ccc(Cl)cc2)nc2c(NC3CCCC3)ncnc21", "STUDY_SYSTEM": "Human-A2B (HEK-A2B) (Homo sapiens)", "Ki": "> 6.67 µM"}

Values from patent US7517888B2
